Tested on: rat formalin model
Test Method Notes: Formalin-induced pain model (paw flinches)
Type: in vivo
Measurement Setup: 30 mg/kg IP, 10 min before formalin, ±SEM, saline control=100%
Protocol: The effects of intrathecally delivered compounds of the invention on the rat formalin model were measured. The compounds were reconstituted to stock solutions of approximately 10 mg/ml in propylene glycol. Eight Holtzman male rats of 275-375 g size were randomly selected per test article. The following study groups were used, with test article, vehicle control (propylene glycol) and saline delivered intraperitoneally (IP): […]
Assay Metric: Phase I (% MPE)

{"Compound": "O=C(NC(c1ccccc1)c1ccccc1)N1CCN(C(c2ccccc2)c2ccccc2)CC1", "Assay Metric": "Phase I (% MPE)", "Result Value": 58}
{"Compound": "O=C(NC(c1ccccc1)c1ccccc1)N1CCN(C(c2ccccc2)c2ccc(Cl)cc2)CC1 (stereo not drawn)", "Assay Metric": "Phase I (% MPE)", "Result Value": 71}
{"Compound": "O=C(NC(c1ccccc1)c1ccccc1)N1CCN(C(c2ccccc2)c2cccc(Cl)c2Cl)CC1 (stereo not drawn)", "Assay Metric": "Phase I (% MPE)", "Result Value": 61}
{"Compound": "O=C(NC(c1ccccc1)c1ccccc1)N1CCN(C(c2ccccc2)c2cccc(Cl)c2)CC1 (stereo not drawn)", "Assay Metric": "Phase I (% MPE)", "Result Value": 54}
{"Compound": "O=C(NC(c1ccccc1)c1ccccc1)N1CCN(C(c2ccccc2)c2ccccc2Cl)CC1 (stereo not drawn)", "Assay Metric": "Phase I (% MPE)", "Result Value": 53}
{"Compound": "CN(C)CCCN1CCN(C(=O)NC(c2ccccc2)c2ccccc2)CC1", "Assay Metric": "Phase I (% MPE)", "Result Value": 59}

###

System Tested: rat brain N-type calcium channel subunits (α1B+α2δ+β1b cDNA subunits) (Rattus norvegicus, UniProt Q02294)
Construct: expressed in transfected cells
Test Method Notes: N-type calcium channel block, whole cell patch clamp in HEK 293 cells
Type: cell-based
Measurement Setup: pulse frequency 0.2 Hz (frequency dependent block), holding potential −80 mV to +10 mV, read-out: IC50 @ 0.2 Hz
In this section, each of the compounds is paired with its reported log10 of IC50.
Assay Metric: log10 of IC50 (log10 of the value in nM)

{"Compound": "O=C(NC(c1ccccc1)c1ccccc1)N1CCN(CCN2CCCC2)CC1", "Result Value": 3.00}
{"Compound": "O=C(NC(c1ccccc1)c1ccccc1)N1CCN(C(c2ccccc2)C2CCNCC2)CC1 (centres unmarked)", "Result Value": 3.33}
{"Compound": "CN1CCCC(CN2CCN(C(=O)NC(c3ccccc3)c3ccccc3)CC2)C1 (centres unmarked)", "Result Value": 2.69}
{"Compound": "O=C(NC(c1ccccc1)c1ccccc1)N1CCN(C(c2ccccc2)c2cccc(Cl)c2)CC1 (centres unmarked)", "Result Value": 2.53}
{"Compound": "O=C(NC(c1ccccc1)c1ccccc1)N1CCN(C(c2ccccc2)c2ccc(Cl)cc2Cl)CC1 (centres unmarked)", "Result Value": 3.17}
{"Compound": "CN1CCC(C(c2cccc(Cl)c2)N2CCN(C(=O)NC(c3ccccc3)c3ccccc3)CC2)CC1 (centres unmarked)", "Result Value": 3.19}
{"Compound": "O=C(NC(c1ccccc1)c1ccccc1)N1CCN(C(c2ccccc2)c2ccccc2Cl)CC1 (centres unmarked)", "Result Value": 2.26}

###

System Tested: human DiG T-type channels (Homo sapiens)
Construct: expressed in transfected cells
Sequence (O43497 whole entry): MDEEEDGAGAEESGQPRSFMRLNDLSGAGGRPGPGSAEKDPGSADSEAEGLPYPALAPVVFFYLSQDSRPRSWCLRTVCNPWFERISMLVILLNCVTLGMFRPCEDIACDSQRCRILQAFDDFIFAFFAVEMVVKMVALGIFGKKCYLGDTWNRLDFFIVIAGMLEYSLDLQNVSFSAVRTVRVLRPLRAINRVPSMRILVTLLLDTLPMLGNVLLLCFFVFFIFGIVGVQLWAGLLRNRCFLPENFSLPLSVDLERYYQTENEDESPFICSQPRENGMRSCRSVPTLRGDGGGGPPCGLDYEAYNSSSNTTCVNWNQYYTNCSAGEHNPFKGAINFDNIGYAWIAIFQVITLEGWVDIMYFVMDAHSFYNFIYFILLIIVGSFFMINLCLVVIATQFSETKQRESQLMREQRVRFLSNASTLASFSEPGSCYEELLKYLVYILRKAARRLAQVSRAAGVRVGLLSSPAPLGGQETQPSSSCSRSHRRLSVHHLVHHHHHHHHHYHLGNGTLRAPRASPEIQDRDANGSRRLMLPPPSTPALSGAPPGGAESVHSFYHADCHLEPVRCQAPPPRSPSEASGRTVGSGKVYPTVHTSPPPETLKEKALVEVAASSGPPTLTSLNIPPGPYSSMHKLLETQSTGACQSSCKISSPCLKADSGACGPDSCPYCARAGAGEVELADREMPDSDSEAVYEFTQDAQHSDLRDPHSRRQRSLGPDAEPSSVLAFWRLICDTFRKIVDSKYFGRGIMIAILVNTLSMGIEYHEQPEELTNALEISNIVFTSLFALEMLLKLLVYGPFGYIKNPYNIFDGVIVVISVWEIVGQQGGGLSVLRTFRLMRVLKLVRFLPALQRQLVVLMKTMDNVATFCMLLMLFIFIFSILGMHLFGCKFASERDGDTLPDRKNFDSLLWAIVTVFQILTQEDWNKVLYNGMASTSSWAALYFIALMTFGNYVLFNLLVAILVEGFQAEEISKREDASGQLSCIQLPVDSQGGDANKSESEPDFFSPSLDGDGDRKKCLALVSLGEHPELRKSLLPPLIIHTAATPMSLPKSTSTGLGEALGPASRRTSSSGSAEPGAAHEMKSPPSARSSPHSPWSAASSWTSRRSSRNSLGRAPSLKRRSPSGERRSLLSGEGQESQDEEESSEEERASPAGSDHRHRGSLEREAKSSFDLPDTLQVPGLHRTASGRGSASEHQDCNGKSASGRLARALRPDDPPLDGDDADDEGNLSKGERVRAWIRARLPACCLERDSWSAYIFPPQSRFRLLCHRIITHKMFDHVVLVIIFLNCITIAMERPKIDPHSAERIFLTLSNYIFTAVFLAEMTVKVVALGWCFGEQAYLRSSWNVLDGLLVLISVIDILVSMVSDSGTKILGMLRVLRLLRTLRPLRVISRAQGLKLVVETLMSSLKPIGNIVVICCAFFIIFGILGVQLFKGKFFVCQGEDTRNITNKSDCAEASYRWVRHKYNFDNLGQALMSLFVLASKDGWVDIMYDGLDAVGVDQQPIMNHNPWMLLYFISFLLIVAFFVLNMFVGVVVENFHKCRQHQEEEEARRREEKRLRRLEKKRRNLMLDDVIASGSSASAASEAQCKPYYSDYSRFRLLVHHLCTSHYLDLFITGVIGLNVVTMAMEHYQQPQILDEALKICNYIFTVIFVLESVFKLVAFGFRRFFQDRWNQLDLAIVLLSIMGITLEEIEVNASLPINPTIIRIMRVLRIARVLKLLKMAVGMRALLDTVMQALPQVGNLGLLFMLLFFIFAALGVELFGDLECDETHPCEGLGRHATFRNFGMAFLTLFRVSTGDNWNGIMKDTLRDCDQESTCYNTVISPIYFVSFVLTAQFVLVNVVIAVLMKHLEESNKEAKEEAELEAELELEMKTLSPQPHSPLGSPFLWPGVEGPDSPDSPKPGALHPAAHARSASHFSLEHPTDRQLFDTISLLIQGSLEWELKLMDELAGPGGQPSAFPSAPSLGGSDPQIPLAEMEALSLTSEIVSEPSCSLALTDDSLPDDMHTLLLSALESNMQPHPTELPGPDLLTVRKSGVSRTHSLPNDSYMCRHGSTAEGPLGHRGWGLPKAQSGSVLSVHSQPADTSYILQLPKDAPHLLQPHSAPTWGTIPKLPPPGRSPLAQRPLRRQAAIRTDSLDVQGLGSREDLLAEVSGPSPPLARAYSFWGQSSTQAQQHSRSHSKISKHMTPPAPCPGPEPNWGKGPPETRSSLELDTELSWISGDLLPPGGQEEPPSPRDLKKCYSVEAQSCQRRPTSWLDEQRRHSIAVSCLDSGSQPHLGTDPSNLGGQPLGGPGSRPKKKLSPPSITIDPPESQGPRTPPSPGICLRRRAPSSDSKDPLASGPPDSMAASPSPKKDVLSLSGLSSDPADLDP
Test Method Notes: T-type calcium channel block, whole-cell patch clamp in HEK cell lines
Format: cell-based
Measurement Setup: inactivation protocol, @ −80 mV; read-out: IC50 @ −80 mV
Assign a class from recorded IC50; defined classes: bin A = under 0.06 µM, bin B = from 0.06 µM up to 1 µM, bin C = 1 µM and over

{"Molecule": "Cc1ccc(C(C2CCN(C)CC2)N2CCN(C(=O)NC(c3ccccc3)c3ccccc3)CC2)c(C)c1 (stereo not drawn)", "System Tested": "human DiG T-type channels (Homo sapiens)", "Discrete Label": "bin C"}
{"Molecule": "Cc1ccc(C(c2ccccc2)N2CCN(C(=O)NC(c3ccccc3)c3ccccc3)CC2)c(C)c1 (stereo not drawn)", "System Tested": "human DiG T-type channels (Homo sapiens)", "Discrete Label": "bin A"}
{"Molecule": "CN1CCC(CN2CCN(C(=O)NC(c3ccccc3)c3ccccc3)CC2)CC1", "System Tested": "human DiG T-type channels (Homo sapiens)", "Discrete Label": "bin C"}
{"Molecule": "O=C(NC(c1ccccc1)c1ccccc1)N1CCN(C(c2ccccc2)c2cccc(Cl)c2Cl)CC1 (stereo not drawn)", "System Tested": "human DiG T-type channels (Homo sapiens)", "Discrete Label": "bin B"}
{"Molecule": "CN(C(=O)N1CCN(CCN2CCCC2)CC1)C(c1ccccc1)c1ccccc1", "System Tested": "human DiG T-type channels (Homo sapiens)", "Discrete Label": "bin C"}
{"Molecule": "O=C(NC(c1ccccc1)c1ccccc1)N1CCN(C(c2ccccc2)c2cccc(Cl)c2)CC1 (stereo not drawn)", "System Tested": "human DiG T-type channels (Homo sapiens)", "Discrete Label": "bin A"}
{"Molecule": "O=C(NC(c1ccccc1)c1ccccc1)N1CCN(CCN2CCCC2)CC1", "System Tested": "human DiG T-type channels (Homo sapiens)", "Discrete Label": "bin C"}
{"Molecule": "O=C(NC(c1ccccc1)c1ccccc1)N1CCN(C(c2ccccc2)c2ccc(Cl)cc2Cl)CC1 (stereo not drawn)", "System Tested": "human DiG T-type channels (Homo sapiens)", "Discrete Label": "bin B"}
{"Molecule": "O=C(NC(c1ccccc1)c1ccccc1)N1CCN(C(c2ccccc2)c2ccccc2)CC1", "System Tested": "human DiG T-type channels (Homo sapiens)", "Discrete Label": "bin B"}
{"Molecule": "O=C(NC(c1ccccc1)c1ccccc1)N1CCN(C(c2ccccc2)c2ccccc2Cl)CC1 (stereo not drawn)", "System Tested": "human DiG T-type channels (Homo sapiens)", "Discrete Label": "bin A"}
{"Molecule": "O=C(NC(c1ccccc1)c1ccccc1)N1CCN(C(c2ccccc2)c2ccc(Cl)cc2)CC1 (stereo not drawn)", "System Tested": "human DiG T-type channels (Homo sapiens)", "Discrete Label": "bin A"}
{"Molecule": "CN1CCC(C(c2ccccc2)N2CCN(C(=O)NC(c3ccccc3)c3ccccc3)CC2)CC1 (stereo not drawn)", "System Tested": "human DiG T-type channels (Homo sapiens)", "Discrete Label": "bin C"}

###

In this section, each of the compounds is paired with its reported pIC50.
System Tested: human DiG T-type channels (Homo sapiens)
Construct: expressed in transfected cells
Test Method Notes: T-type calcium channel block, whole-cell patch clamp in HEK cell lines
Format: cell-based
Measurement Setup: non-inactivating protocol, pre-pulse −100 mV, test pulse −40 mV; read-out: IC50 @ −100 mV
pIC50: −log10 of the molar value.
Assay Metric: pIC50

{"Compound": "CN1CCC(CN2CCN(C(=O)NC(c3ccccc3)c3ccccc3)CC2)CC1", "System Tested": "human DiG T-type channels (Homo sapiens)", "Assay Metric": "pIC50", "Comparator": "=", "Result Value": 4.70}
{"Compound": "O=C(NC(c1ccccc1)c1ccccc1)N1CCN(C(c2ccccc2)c2cccc(Cl)c2)CC1 (stereo not shown)", "System Tested": "human DiG T-type channels (Homo sapiens)", "Assay Metric": "pIC50", "Comparator": "=", "Result Value": 6.62}
{"Compound": "CN1CCC(C(c2ccccc2)N2CCN(C(=O)NC(c3ccccc3)c3ccccc3)CC2)CC1 (stereo not shown)", "System Tested": "human DiG T-type channels (Homo sapiens)", "Assay Metric": "pIC50", "Comparator": "=", "Result Value": 5.29}
{"Compound": "O=C(NC(c1ccccc1)c1ccccc1)N1CCN(C(c2ccccc2)c2ccccc2)CC1", "System Tested": "human DiG T-type channels (Homo sapiens)", "Assay Metric": "pIC50", "Comparator": "=", "Result Value": 6.23}
{"Compound": "O=C(NC(c1ccccc1)c1ccccc1)N1CCN(C(c2ccccc2)c2ccccc2Cl)CC1 (stereo not shown)", "System Tested": "human DiG T-type channels (Homo sapiens)", "Assay Metric": "pIC50", "Comparator": "=", "Result Value": 6.83}
{"Compound": "O=C(NC(c1ccccc1)c1ccccc1)N1CCN(C(c2ccccc2)c2ccc(Cl)cc2Cl)CC1 (stereo not shown)", "System Tested": "human DiG T-type channels (Homo sapiens)", "Assay Metric": "pIC50", "Comparator": "=", "Result Value": 6.66}
{"Compound": "Cc1ccc(C(c2ccccc2)N2CCN(C(=O)NC(c3ccccc3)c3ccccc3)CC2)c(C)c1 (stereo not shown)", "System Tested": "human DiG T-type channels (Homo sapiens)", "Assay Metric": "pIC50", "Comparator": "=", "Result Value": 7.12}
{"Compound": "O=C(NC(c1ccccc1)c1ccccc1)N1CCN(CCN2CCCC2)CC1", "System Tested": "human DiG T-type channels (Homo sapiens)", "Assay Metric": "pIC50", "Comparator": "=", "Result Value": 4.82}
{"Compound": "Cc1ccc(C(C2CCN(C)CC2)N2CCN(C(=O)NC(c3ccccc3)c3ccccc3)CC2)c(C)c1 (stereo not shown)", "System Tested": "human DiG T-type channels (Homo sapiens)", "Assay Metric": "pIC50", "Comparator": "=", "Result Value": 5.72}
{"Compound": "O=C(NC(c1ccccc1)c1ccccc1)N1CCN(C(c2ccccc2)c2cccc(Cl)c2Cl)CC1 (stereo not shown)", "System Tested": "human DiG T-type channels (Homo sapiens)", "Assay Metric": "pIC50", "Comparator": "=", "Result Value": 5.38}
{"Compound": "O=C(NC(c1ccccc1)c1ccccc1)N1CCN(C(c2ccccc2)c2ccc(Cl)cc2)CC1 (stereo not shown)", "System Tested": "human DiG T-type channels (Homo sapiens)", "Assay Metric": "pIC50", "Comparator": "=", "Result Value": 6.77}
{"Compound": "O=C(NC(c1ccccc1)c1ccccc1)N1CCN(C(c2ccccc2)C2CCNCC2)CC1 (stereo not shown)", "System Tested": "human DiG T-type channels (Homo sapiens)", "Assay Metric": "pIC50", "Comparator": "=", "Result Value": 6.18}
{"Compound": "CN(C(=O)N1CCN(CCN2CCCC2)CC1)C(c1ccccc1)c1ccccc1", "System Tested": "human DiG T-type channels (Homo sapiens)", "Assay Metric": "pIC50", "Comparator": "<", "Result Value": 4.64}
